- target desc: T1, hu-MCSP(D3 domain)-avi-his (human, UniProt Q6UVK1 1582-2224)
- T1 construct: Recombinant D3 domain with avi and his tags; also called human MCSP(D3 domain)-avi-his; Human MCSP D3
- T1 sequence: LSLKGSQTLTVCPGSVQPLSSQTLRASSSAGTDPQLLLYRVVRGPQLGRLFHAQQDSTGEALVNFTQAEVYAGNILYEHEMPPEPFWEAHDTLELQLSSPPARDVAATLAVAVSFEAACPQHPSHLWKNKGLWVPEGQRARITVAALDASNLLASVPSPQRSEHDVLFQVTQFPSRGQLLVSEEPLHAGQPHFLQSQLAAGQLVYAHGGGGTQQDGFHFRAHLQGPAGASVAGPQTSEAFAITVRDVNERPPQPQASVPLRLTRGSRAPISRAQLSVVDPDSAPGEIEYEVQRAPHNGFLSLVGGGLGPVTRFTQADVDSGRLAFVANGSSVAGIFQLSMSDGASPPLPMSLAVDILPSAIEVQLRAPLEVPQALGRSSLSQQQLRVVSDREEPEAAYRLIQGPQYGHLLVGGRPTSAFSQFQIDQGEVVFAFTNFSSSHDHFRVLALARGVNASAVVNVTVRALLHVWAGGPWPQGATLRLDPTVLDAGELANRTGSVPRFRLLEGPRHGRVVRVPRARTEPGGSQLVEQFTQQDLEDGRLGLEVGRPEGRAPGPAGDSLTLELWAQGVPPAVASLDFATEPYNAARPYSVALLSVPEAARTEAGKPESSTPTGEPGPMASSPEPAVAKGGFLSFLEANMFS
- assay: SPR ProteOn XPR36, 25 C; IgG captured via anti-human F(ab')2, MCSP D3 as analyte
result type: pKd
Entry type: numeric. Quantity: pKd, the -log10 of concentration in molar units.

Reference set, count: 3
binder	pKd
M4-(A7)/ML2(C5) IgG (antibody, V domains shown, Human IgG1; also called M4-3(A7)/ML2(C5)) VH: QVQLQESGPGLVKPSQTLSLTCTVSGGSITDGYYWNWIRQHPGKGLEWIGYITFDGRNNYNPSLKSRVTISRDTSKNQFSLKLSSVTAADTAVYYCADFDYWGQGTLVTVSS VL: DIQMTQSPSSLSASVGDRVTITCRASRGIREYLNWYQQKPGKAPKLLIYYTGSLHSGVPSRFSGSGSGTDFTLTISSLQPEDFATYYCQQYSELPWTFGQGTKVEIK	9.15
Parental M4-3/ML2 IgG (antibody, V domains shown, Human IgG1 format, from mammalian production; also called M4-3 ML2 (parental); anti-MCSP antibody M4-3/ML2) VH: QVQLQESGPGLVKPSQTLSLTCTVSGGSITSGYYWNWIRQHPGKGLEWIGYITYDGSNNYNPSLKSRVTISRDTSKNQFSLKLSSVTAADTAVYYCADFDYWGQGTLVTVSS VL: DIQMTQSPSSLSASVGDRVTITCRASQGIRNYLNWYQQKPGKAPKLLIYYTSSLHSGVPSRFSGSGSGTDFTLTISSLQPEDFATYYCQQYSKLPWTFGQGTKVEIK	8.70
M4-3(A7)/ML2(G3) IgG (antibody, V domains shown, Human IgG1) VH: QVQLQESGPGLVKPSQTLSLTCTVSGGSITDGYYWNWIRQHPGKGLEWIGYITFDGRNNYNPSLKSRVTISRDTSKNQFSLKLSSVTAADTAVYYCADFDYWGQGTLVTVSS VL: DIQMTQSPSSLSASVGDRVTITCRASQGIRNYLNWYQQKPGKAPKLLIYYTSSLHSGVPSRFSGSGSGTDYTLTISSLQPEDFATYYCQQYSALPWTFGQGTKVEIK	10.15

Now consider the entry below.
The reported value for M4-3(C1)/ML2(C5) IgG (antibody, V domains shown, Human IgG1) VH: QVQLQESGPGLVKPSQTLSLTCTVSGGSITSGYYWNWIRQHPGKGLEWIGYITFDGSNNYNPSLKSRVTISRDTSKNQFSLKLSSVTAADTAVYYCADFDYWGQGTLVTVSS VL: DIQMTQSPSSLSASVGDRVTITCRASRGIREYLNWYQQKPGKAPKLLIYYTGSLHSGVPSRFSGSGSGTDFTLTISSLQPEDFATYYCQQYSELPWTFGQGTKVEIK in terms of pKd is 9.70

Source: patent US20140242080A1
